test: Cytotoxicity, MTT colorimetric method, A549; type: cell-based; details: human, A549 cells (lung carcinoma)

| compound | IC50 |
| --- | --- |
| C=C1CC[C@@H](O)[C@]2(C)C[C@H](OC(C)=O)[C@@H]3[C@@H]([C@@H](C(C)C)CC[C@@]3(C)O)[C@H]12 [formula 16] | 15.3 µg/mL |

---

assay: Cytotoxicity, MTT colorimetric method, Ca9-22; assay type: cell-based; details: human, Ca9-22 cells (gingival carcinoma)
quantity-kind: IC50

| structure-smiles | quantity-kind | obs-value |
| --- | --- | --- |
| C=C1CC[C@@H](O)[C@]2(C)C[C@H](OC(C)=O)[C@@H]3[C@@H]([C@@H](C(C)C)CC[C@@]3(C)O)[C@H]12 | IC50 | 13.6 µg/mL |

---

assay: Cytotoxicity, MTT colorimetric method, Hep G2; format: cell-based; conditions: human, Hep G2 cells (hepatocellular carcinoma)

| compound | unit-of-measurement | IC50 |
| --- | --- | --- |
| C=C1CC[C@@H](O)[C@]2(C)C[C@H](OC(C)=O)[C@@H]3[C@@H]([C@@H](C(C)C)CC[C@@]3(C)O)[C@H]12 [formula 16] | µg/mL | 12.5 |

---

assay: Cytotoxicity, MTT colorimetric method, Hep 3B; format: cell-based; conditions: human, Hep 3B cells (hepatocellular carcinoma)
quantity-kind: IC50

| compound | obs-value |
| --- | --- |
| C=C1CC[C@@H](O)[C@]2(C)C[C@H](OC(C)=O)[C@@H]3[C@@H]([C@@H](C(C)C)CC[C@@]3(C)O)[C@H]12 [formula 16] | 9.6 µg/mL |

src = patent US8927594B2
